pIC50: −log10 of the molar value.
Here's a roundup of pIC50 values tested on Poly [ADP-ribose] polymerase 1 (Homo sapiens, UniProt P09874), taken from various published works.
Sequence (P09874 whole entry): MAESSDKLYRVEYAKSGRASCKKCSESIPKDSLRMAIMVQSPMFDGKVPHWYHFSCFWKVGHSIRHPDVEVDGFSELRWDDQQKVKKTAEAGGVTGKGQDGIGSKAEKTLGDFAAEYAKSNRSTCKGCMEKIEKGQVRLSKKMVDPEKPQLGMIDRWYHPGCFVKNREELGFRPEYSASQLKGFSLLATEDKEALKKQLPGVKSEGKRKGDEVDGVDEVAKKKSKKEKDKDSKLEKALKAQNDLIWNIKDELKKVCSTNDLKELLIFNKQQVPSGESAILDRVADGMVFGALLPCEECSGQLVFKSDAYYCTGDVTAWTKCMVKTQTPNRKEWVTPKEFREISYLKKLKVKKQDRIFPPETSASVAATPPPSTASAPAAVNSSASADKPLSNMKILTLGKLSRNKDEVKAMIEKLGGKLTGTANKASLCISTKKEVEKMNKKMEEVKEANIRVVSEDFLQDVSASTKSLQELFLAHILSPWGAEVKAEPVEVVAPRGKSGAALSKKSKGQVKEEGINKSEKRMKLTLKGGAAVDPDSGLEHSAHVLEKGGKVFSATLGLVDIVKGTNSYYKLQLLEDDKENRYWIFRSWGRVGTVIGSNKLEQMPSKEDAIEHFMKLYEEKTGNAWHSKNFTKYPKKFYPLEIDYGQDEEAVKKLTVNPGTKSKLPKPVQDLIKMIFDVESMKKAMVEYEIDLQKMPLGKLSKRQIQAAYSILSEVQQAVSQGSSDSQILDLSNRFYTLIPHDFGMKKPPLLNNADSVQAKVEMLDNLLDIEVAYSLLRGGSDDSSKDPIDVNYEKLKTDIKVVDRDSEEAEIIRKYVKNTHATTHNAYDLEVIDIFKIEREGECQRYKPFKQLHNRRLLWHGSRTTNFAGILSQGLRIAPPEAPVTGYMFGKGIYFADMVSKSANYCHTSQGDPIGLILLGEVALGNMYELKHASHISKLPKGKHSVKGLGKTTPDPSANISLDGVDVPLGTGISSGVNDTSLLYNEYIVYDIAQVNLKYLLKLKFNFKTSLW
property-measured: pIC50

Consider the following illustrative entries.
compound	target-system	observed-measurement
NC(=O)c1ccccc1OCCc1cccc(C(=O)N2CCN(C(=O)C3CCCC3)CC2)c1	Poly [ADP-ribose] polymerase 1 (Homo sapiens, UniProt P09874)	6.70
C=CCC1(C(=O)N2CCN(C(=O)c3cc(Cc4n[nH]c(=O)c(C)c4C)ccc3F)CC2)CCCN1 (stereo not given)	Poly [ADP-ribose] polymerase 1 (Homo sapiens, UniProt P09874)	8.74

A. O=C(CCSc1nc2ccccc2c(=O)[nH]1)N[C@H]1CC[C@H](c2nnc(-c3ccncc3)o2)CC1
B. COc1ccccc1N1CCN(C(=O)c2cc(Cc3n[nH]c(=O)c4ccccc34)cc(F)c2F)CC1
# input Hey, which is lower on measured pIC50, A or B ? # answer = label of selected item
# output A
(A: 4.99, B: 6.53)
